molecular target: PLK1 (Homo sapiens, UniProt P53350); construct: endogenous in cells; experiment: Western blot, protein degradation (DC50); assay type: cell-based; conditions: 24 h, western blot; read-out: PLK1 DC50 (24 h)
Sequence (P53350 whole entry): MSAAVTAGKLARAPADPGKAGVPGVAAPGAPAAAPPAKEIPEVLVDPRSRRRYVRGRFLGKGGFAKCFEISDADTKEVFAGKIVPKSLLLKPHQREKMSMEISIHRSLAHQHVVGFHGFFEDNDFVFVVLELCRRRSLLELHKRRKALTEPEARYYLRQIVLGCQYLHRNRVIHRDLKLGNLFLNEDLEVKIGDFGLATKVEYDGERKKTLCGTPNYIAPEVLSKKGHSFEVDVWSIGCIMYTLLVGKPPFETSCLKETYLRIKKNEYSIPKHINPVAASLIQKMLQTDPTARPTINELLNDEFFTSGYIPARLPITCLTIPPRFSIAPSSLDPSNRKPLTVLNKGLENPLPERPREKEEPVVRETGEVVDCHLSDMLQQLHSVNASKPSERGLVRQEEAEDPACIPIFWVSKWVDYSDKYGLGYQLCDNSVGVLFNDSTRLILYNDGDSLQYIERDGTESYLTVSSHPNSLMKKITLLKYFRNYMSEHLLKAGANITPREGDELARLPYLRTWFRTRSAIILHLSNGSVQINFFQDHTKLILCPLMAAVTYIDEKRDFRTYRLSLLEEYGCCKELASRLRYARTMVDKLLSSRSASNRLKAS
Consider the following compounds; for each one, report its DC50.

Give the measured DC50 of CC[C@@H]1C(=O)N(C)c2cnc(Nc3ccc(C(=O)NCCOCCOCCOCCNCCCC(=O)Nc4cccc5c4CN(C4CCC(=O)NC4=O)C5=O)cc3OC)nc2N1C1CCCC1 (some centres unmarked) .
10 to 100 nM

Please give the measured DC50 for this compound: CC[C@@H]1C(=O)N(C)c2cnc(Nc3ccc(C(=O)NC4CCN(CCNCCOCC(=O)Nc5cccc6c5CN(C5CCC(=O)NC5=O)C6=O)C4)cc3OC)nc2N1C1CCCC1 (some centres unmarked)
10 to 100 nM

Can you share its DC50? I mean this compound: CC[C@@H]1C(=O)N(C)c2cnc(Nc3ccc(C(=O)NC4CCN(CCOCCNCC(=O)Nc5cccc6c5CN(C5CCC(=O)NC5=O)C6=O)CC4)cc3OC)nc2N1C1CCCC1 (some centres unmarked)
< 10 nM

Give its DC50 value. Item: CC[C@@H]1C(=O)N(C)c2cnc(Nc3ccc(C(=O)NCCOCCOCCOCCNCC(=O)Nc4cccc5c4CN(C4CCC(=O)NC4=O)C5=O)cc3OC)nc2N1C1CCCC1 (some centres unmarked)
< 10 nM

For the compound CC[C@@H]1C(=O)N(C)c2cnc(Nc3ccc(C(=O)NCc4cn(CCNCCC(=O)Nc5cccc6c5CN(C5CCC(=O)NC5=O)C6=O)nn4)cc3OC)nc2N1C1CCCC1 (some centres unmarked) , what DC50 is on record?
10 to 100 nM

Reference source for all entries: patent US20210369853A1
